Measured values drawn from patent US20120316071A1 for this set.

Listing: ELISA Signal-blank (100 nM Fab) of selected binders
STUDY TARGET: T1, Recombinant Human DLL4 (human, UniProt Q9NR61 27-524)
T1 construct: also called delta-like protein 4; rHuman DLL4
TEST METHOD NOTES: ELISA, DLL4 coated on plate, Fab at 100 nM, absorbance at 450 nm minus blank
READOUT NAME: ELISA Signal-blank (100 nM Fab)

>>> experimental_result("Fab VH5-51_IGHD5-18*01>3_IGHJ4*01 G100K/G104T G24T/S28R/G35V (H:KT TRV) & V3-4_IGLJ1*01 T78V (Fab, V domains shown, Fab; expressed in E. coli with CH1 (Plasmid A, His6 and Flag tags) and lambda CL (Plasmid E); also called H:KT TRV & T78V) VH: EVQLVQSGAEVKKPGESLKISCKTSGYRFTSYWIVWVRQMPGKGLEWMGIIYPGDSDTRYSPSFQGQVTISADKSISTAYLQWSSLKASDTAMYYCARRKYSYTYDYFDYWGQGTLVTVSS VL: QTVVTQEPSFSVSPGGTVTLTCGLSSGSVSTSYYPSWYQQTPGQAPRTLIYSTNTRSSGVPDRFSGSILGNKAALTIVGAQADDESDYYCVLYMGSGISYVFGTGTKVTVL")
0.34
>>> experimental_result("Fab VH5-51_IGHD5-18*01>3_IGHJ4*01 G100K/G104T G24T/S28R/G35V (H:KT TRV) & V3-4_IGLJ1*01 T78E (Fab, V domains shown, Fab; expressed in E. coli with CH1 (Plasmid A, His6 and Flag tags) and lambda CL (Plasmid E); also called H:KT TRV & T78E) VH: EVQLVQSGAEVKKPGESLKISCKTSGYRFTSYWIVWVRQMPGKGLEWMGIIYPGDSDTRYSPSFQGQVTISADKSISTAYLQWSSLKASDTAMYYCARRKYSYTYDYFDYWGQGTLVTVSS VL: QTVVTQEPSFSVSPGGTVTLTCGLSSGSVSTSYYPSWYQQTPGQAPRTLIYSTNTRSSGVPDRFSGSILGNKAALTIEGAQADDESDYYCVLYMGSGISYVFGTGTKVTVL")
0.217
>>> experimental_result("Fab VH5-51_IGHD5-18*01>3_IGHJ4*01 G100K/G104T G24T/S28R/G35V (H:KT TRV) & V3-4_IGLJ1*01 P35A (Fab, V domains shown, Fab; expressed in E. coli with CH1 (Plasmid A, His6 and Flag tags) and lambda CL (Plasmid E); also called H:KT TRV & P35A) VH: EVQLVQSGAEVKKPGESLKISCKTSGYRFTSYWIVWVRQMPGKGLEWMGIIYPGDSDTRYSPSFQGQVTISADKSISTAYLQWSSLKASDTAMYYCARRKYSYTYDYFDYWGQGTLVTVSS VL: QTVVTQEPSFSVSPGGTVTLTCGLSSGSVSTSYYASWYQQTPGQAPRTLIYSTNTRSSGVPDRFSGSILGNKAALTITGAQADDESDYYCVLYMGSGISYVFGTGTKVTVL")
0.236
